System: Homo sapiens
Experiment: Drug level in human plasma treated with [14C]lixivaptan at 100 mg, po administered as single dose measured after 2 hrs by liquid scintillation counting
Type: ADME, organism-based
Design: dosed compound name [14C]lixivaptan
Settings: in vivo
Below: a set of entries, each annotated with reported Compound recovery.
Write it as a number; the unit % goes unstated.

See these solved cases before continuing.
Cc1ccc(F)cc1C(=O)Nc1ccc(C(=O)N2C=C3CCC(=O)N3Cc3ccccc32)c(Cl)c1 = 1.5
Cc1ccc(F)cc1C(=O)Nc1ccc(C(=O)Nc2ccccc2C(=O)O)c(Cl)c1 = 12.6
Cc1ccc(F)cc1C(=O)Nc1ccc(C(=O)N2Cc3cccn3C(O)c3ccccc32)c(Cl)c1 (centres undefined) = 2.2

QUERY: Find the recorded Compound recovery belonging to `Cc1ccc(F)cc1C(=O)Nc1ccc(C(=O)Nc2ccccc2Cn2cccc2C(=O)O)c(Cl)c1` and report it.
RESULT: 16.5

###

Test: Tmax in male Sprague-Dawley rat plasma at 10 mg/kg, po administered as single dose via gavage by LC-MS/MS analysis
Format: ADME, organism-based
Parameters: dose 10 mg/kg, dosed compound name [14C]lixivaptan, route oral
measurement kind: Tmax (min)
The answer is to be given in min; state only the numeric part.

QUERY: Tmax for Cc1ccc(F)cc1C(=O)Nc1ccc(C(=O)N2Cc3cccn3Cc3ccccc32)c(Cl)c1 [LIXIVAPTAN] ?
RESULT: 48

###

Experiment: Half life in human plasma at 100 mg, po administered as single dose by LC-MS/MS analysis
Assay type: ADME, organism-based
Set-up: dosed compound name [14C]lixivaptan
measurement kind: half-life (min)
Note: unit min is implicit; provide only the numeric part.

QUERY: Item under review: `Cc1ccc(F)cc1C(=O)Nc1ccc(C(=O)N2Cc3cccn3Cc3ccccc32)c(Cl)c1` . Reported half-life?
RESULT: 586

###

Test: Half life in male Sprague-Dawley rat plasma at 10 mg/kg, po administered as single dose via gavage by LC-MS/MS analysis
Format: ADME, organism-based
Parameters: dose 10 mg/kg, dosed compound name [14C]lixivaptan, route oral
measurement kind: half-life (h)
Enter your answer as a number in h; do not include the unit.

QUERY: # query: half-life of entry `Cc1ccc(F)cc1C(=O)Nc1ccc(C(=O)N2Cc3cccn3Cc3ccccc32)c(Cl)c1`
RESULT: 1.3

###

Tested on: Homo sapiens
Experiment: Drug level in human plasma treated with [14C]lixivaptan at 100 mg, po administered as single dose measured after 12 hrs by liquid scintillation counting
Type: ADME, organism-based
Parameters: dosed compound name [14C]lixivaptan
Settings: in vivo
measurement kind: Compound recovery (%)
Numeric only. Scale: %

Past entries and their recorded results:
Cc1ccc(F)cc1C(=O)Nc1ccc(C(=O)N2C=C3CCC(=O)N3Cc3ccccc32)c(Cl)c1 = 2.1
Cc1ccc(F)cc1C(=O)Nc1ccc(C(=O)N2Cc3cccn3C(O)c3ccccc32)c(Cl)c1 (centres undefined) = 1.6
Cc1ccc(F)cc1C(=O)Nc1ccc(C(=O)Nc2ccccc2Cn2cccc2C(=O)O)c(Cl)c1 = 11.2

Next:
QUERY: # lookup: Compound recovery of `Cc1ccc(F)cc1C(=O)Nc1ccc(C(=O)Nc2ccccc2C(=O)O)c(Cl)c1`
RESULT: 30.1

###

Assay: AUC(0 to infinity) in male beagle dog plasma at 10 mg/kg, po administered as single dose by LC-MS/MS analysis
Assay type: ADME, organism-based, Canis lupus familiaris
Design: time infinity, dose 10 mg/kg, dosed compound name [14C]lixivaptan, route oral
measurement kind: AUC(0-inf) (ng·h/mL)
// note: answer is a bare numeric in ng·h/mL

QUERY: Request the reported AUC(0-inf) associated with `Cc1ccc(F)cc1C(=O)Nc1ccc(C(=O)N2Cc3cccn3Cc3ccccc32)c(Cl)c1`
RESULT: 4870

###

Assay: AUC at steady state in human at 100 mg, po qd for 7 days by LC/MS/MS analysis
Format: ADME, organism-based
Parameters: dosed compound name Lixivaptan
Conditions: plasma
measurement kind: AUC at 168 h

QUERY: Look up AUC at 168 h: `Cc1ccc(F)cc1C(=O)Nc1ccc(C(=O)N2Cc3cccn3Cc3ccccc32)c(Cl)c1`
RESULT: 2960 ng·h/mL

###

Assay: AUC(0 to infinity) in female Sprague-Dawley rat plasma at 10 mg/kg, po administered as single dose via gavage by LC-MS/MS analysis
Format: ADME, organism-based
Parameters: time infinity, dose 10 mg/kg, dosed compound name [14C]lixivaptan, route oral
measurement kind: AUC(0-inf) (ng·h/mL)
Report as a plain number; the unit ng·h/mL is understood.

QUERY: Given Cc1ccc(F)cc1C(=O)Nc1ccc(C(=O)N2Cc3cccn3Cc3ccccc32)c(Cl)c1 [LIXIVAPTAN] , state its recorded AUC(0-inf).
RESULT: 1890

###

Test: Half life in female Sprague-Dawley rat plasma at 10 mg/kg, po administered as single dose via gavage by LC-MS/MS analysis
Type: ADME, organism-based
Design: dose 10 mg/kg, dosed compound name [14C]lixivaptan, route oral
measurement kind: half-life (h)
Use h as the unit, but write only the number.

QUERY: Item `Cc1ccc(F)cc1C(=O)Nc1ccc(C(=O)N2Cc3cccn3Cc3ccccc32)c(Cl)c1` has what recorded half-life?
RESULT: 4.2

###

Test system: Homo sapiens
Test: Drug level in human plasma treated with [14C]lixivaptan at 100 mg, po administered as single dose measured after 4 hrs by liquid scintillation counting
Type: ADME, organism-based
Parameters: dosed compound name [14C]lixivaptan
Settings: in vivo
measurement kind: Compound recovery (%)
API: value field is a number in %; no unit string.

Cc1ccc(F)cc1C(=O)Nc1ccc(C(=O)N2C=C3CCC(=O)N3Cc3ccccc32)c(Cl)c1 = 2.5
Cc1ccc(F)cc1C(=O)Nc1ccc(C(=O)Nc2ccccc2Cn2cccc2C(=O)O)c(Cl)c1 = 16.8
Cc1ccc(F)cc1C(=O)Nc1ccc(C(=O)N2Cc3cccn3C(O)c3ccccc32)c(Cl)c1 (centres undefined) = 2.4

Okay, next one:
QUERY: Return reported Compound recovery; argument: `Cc1ccc(F)cc1C(=O)Nc1ccc(C(=O)Nc2ccccc2C(=O)O)c(Cl)c1`
RESULT: 19.6

###

Assay: Cmax in female Sprague-Dawley rat plasma at 10 mg/kg, po administered as single dose
Type: ADME, organism-based
Set-up: dose 10 mg/kg, dosed compound name [14C]lixivaptan, route oral
measurement kind: Cmax (ng/mL)
Write the number in ng/mL without appending the unit.

QUERY: Recorded Cmax of `Cc1ccc(F)cc1C(=O)Nc1ccc(C(=O)N2Cc3cccn3Cc3ccccc32)c(Cl)c1` , please.
RESULT: 338

###

Assay: AUC(0 to t) in male beagle dog plasma at 10 mg/kg, po administered as single dose by LC-MS/MS analysis
Assay type: ADME, organism-based, Canis lupus familiaris
Design: dose 10 mg/kg, dosed compound name [14C]lixivaptan, route oral
measurement kind: AUC(0-t) (ng·h/mL)
Please respond with the number in ng·h/mL and leave the unit unwritten.

QUERY: Value lookup for AUC(0-t); key = `Cc1ccc(F)cc1C(=O)Nc1ccc(C(=O)N2Cc3cccn3Cc3ccccc32)c(Cl)c1`
RESULT: 4700

###

Experiment: AUC(0 to infinity) in male Sprague-Dawley rat plasma at 10 mg/kg, po administered as single dose via gavage by LC-MS/MS analysis
Assay type: ADME, organism-based
Parameters: time infinity, dose 10 mg/kg, dosed compound name [14C]lixivaptan, route oral
measurement kind: AUC(0-inf) (ng·h/mL)
All answers are understood in ng·h/mL, so give the number only.

QUERY: AUC(0-inf) lookup needed for `Cc1ccc(F)cc1C(=O)Nc1ccc(C(=O)N2Cc3cccn3Cc3ccccc32)c(Cl)c1` , thanks.
RESULT: 219

###

Tested on: Homo sapiens
Experiment: Drug level in human plasma treated with [14C]lixivaptan at 100 mg, po administered as single dose measured after 0.5 hrs by liquid scintillation counting
Format: ADME, organism-based
Parameters: dosed compound name [14C]lixivaptan
Conditions: in vivo
measurement kind: Compound recovery (%)
Give just the numeric value; % need not be written.

Recorded Compound recovery, per entry:
Cc1ccc(F)cc1C(=O)Nc1ccc(C(=O)N2Cc3cccn3C(O)c3ccccc32)c(Cl)c1 (centres undefined) = 2.7
Cc1ccc(F)cc1C(=O)Nc1ccc(C(=O)N2C=C3CCC(=O)N3Cc3ccccc32)c(Cl)c1 = 0.6
Cc1ccc(F)cc1C(=O)Nc1ccc(C(=O)Nc2ccccc2C(=O)O)c(Cl)c1 = 1.5

Now for a further molecule.
QUERY: Suppose we examine the molecule `Cc1ccc(F)cc1C(=O)Nc1ccc(C(=O)Nc2ccccc2Cn2cccc2C(=O)O)c(Cl)c1` ; what Compound recovery value has been reported?
RESULT: 4.1

###

Assay: Cmax in male beagle dog plasma at 10 mg/kg, po administered as single dose by LC-MS/MS analysis
Assay type: ADME, organism-based, Canis lupus familiaris
Parameters: dose 10 mg/kg, dosed compound name [14C]lixivaptan, route oral
measurement kind: Cmax (ng/mL)
Just the number please, in ng/mL, no unit attached.

QUERY: // lookup Cmax for `Cc1ccc(F)cc1C(=O)Nc1ccc(C(=O)N2Cc3cccn3Cc3ccccc32)c(Cl)c1`
RESULT: 759

Taken from ChEMBL document CHEMBL3525987.
